- study.target: UniProt P05067
- Sequence (P05067 whole entry): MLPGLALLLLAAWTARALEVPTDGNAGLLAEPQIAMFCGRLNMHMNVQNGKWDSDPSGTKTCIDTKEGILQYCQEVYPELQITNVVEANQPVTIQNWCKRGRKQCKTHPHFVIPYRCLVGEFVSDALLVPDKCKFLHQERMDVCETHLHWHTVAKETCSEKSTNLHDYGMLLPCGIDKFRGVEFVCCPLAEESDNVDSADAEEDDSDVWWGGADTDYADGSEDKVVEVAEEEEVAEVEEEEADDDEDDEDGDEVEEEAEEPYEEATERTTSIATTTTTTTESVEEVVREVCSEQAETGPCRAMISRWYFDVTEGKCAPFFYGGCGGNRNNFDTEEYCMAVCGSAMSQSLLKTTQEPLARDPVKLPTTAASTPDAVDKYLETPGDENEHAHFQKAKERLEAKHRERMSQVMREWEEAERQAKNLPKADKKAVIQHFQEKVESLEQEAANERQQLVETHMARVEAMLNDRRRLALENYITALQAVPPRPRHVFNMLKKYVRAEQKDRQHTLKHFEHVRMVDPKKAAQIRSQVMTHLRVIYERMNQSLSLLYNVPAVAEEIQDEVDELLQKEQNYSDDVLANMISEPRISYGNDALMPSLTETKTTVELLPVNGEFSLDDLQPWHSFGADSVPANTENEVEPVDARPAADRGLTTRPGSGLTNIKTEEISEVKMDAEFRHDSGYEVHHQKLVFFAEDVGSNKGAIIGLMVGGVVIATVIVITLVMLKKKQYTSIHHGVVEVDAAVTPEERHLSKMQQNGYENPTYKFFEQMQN
- assay.explanation: Inhibition of amyloid-beta40 (unknown origin) aggregation by congo red spectral-shift assay
# IC50 per entry
Provide only the numeric value, understood in µM.

In the examples that follow, each entry is paired with its recorded IC50.
[[record]]
structure_string = "Oc1ccc(-c2ccc(O)c(O)c2)cc1O"
result_value = 25

[[record]]
structure_string = "Oc1ccc(-c2cccc(-c3ccc(O)c(O)c3)c2)cc1O"
result_value = 92.5


Please look at the following compound next.
QUERY: Fill blank: measured IC50 of the compound Oc1ccc(-c2ccccc2-c2ccc(O)c(O)c2)cc1O is ____.
RESULT: 67.5
